Each record here notes measured IC50.
- study-target: 11β-HSD1 (Homo sapiens)
- Sequence (P28845 whole entry): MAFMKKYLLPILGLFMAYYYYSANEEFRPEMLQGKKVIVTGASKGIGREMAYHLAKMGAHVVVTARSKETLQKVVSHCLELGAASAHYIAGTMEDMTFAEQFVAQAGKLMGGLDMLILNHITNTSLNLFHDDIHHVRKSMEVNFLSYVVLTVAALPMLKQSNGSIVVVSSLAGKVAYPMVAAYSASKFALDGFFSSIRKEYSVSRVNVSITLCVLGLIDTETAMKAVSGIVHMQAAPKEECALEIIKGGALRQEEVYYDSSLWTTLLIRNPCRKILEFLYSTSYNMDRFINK
- measurement-notes: biochemical
- condition: IC50 Range, Biological Test Example 1; microsomes from CHO cells overexpressing human 11β-HSD1

# annotated cases, reported IC50 shown
compound	result
COc1cccc([C@H](C)N2CCC(C)(c3ccccc3)OC2=O)c1 (some centres unmarked) [EXAMPLE 84]	< 100 nM
C[C@@H](c1ccc(Br)cc1)N1CC[C@](CC(C)(C)CO)(c2ccc(F)cc2)OC1=O [EXAMPLE 528]	< 100 nM
CC(=O)C[C@]1(c2ccc(F)cc2)CCN([C@@H](C)c2ccc(OC(F)F)cc2)C(=O)O1 [EXAMPLE 321]	< 100 nM
C=CCC1(c2ccc(F)cc2)CCN([C@@H](CC)c2ccc(Br)cc2)C(=O)O1 (single isomer, unassigned) [EXAMPLE 130 Isomer 1]	< 100 nM
C[C@@H](c1ccc(F)cc1)N1CC[C@](CCCO)(c2ccc(F)cc2)OC1=O [EXAMPLE 285]	< 100 nM
CC[C@@H](c1ccc(Br)cc1)N1CC[C@](CCCO)(c2ccc(F)cc2)OC1=O [EXAMPLE 241]	< 100 nM
COCc1ccc([C@H](C)N2CC[C@](CCCO)(c3ccccc3)OC2=O)cc1 [EXAMPLE 199]	< 100 nM
CCOC(=O)NCC[C@]1(c2ccc(F)cc2)CCN([C@@H](C)c2ccc(Br)cc2)C(=O)O1 [EXAMPLE 620]	< 100 nM
CC1(c2ccccc2)CCN(c2cccc(-c3ccc(C(N)=O)cc3)c2)C(=O)O1 (centres unmarked) [EXAMPLE 44]	100 to 1000 nM
C[C@@H](c1ccc(S(C)(=O)=O)cc1)N1CC[C@](CCO)(c2ccc(F)cc2)OC1=O [EXAMPLE 308]	> 1000 nM

Param readout = IC50; param system = 11β-HSD1 (Homo sapiens); param query = C[C@@H](c1ccc(Cl)c(F)c1)N1CC[C@](CCCNS(C)(=O)=O)(c2ccc(F)cc2)OC1=O [EXAMPLE 535] ; response: value
< 100 nM

Find the measured IC50: item CC1(c2ccccc2)CCN(c2cccc(-c3ccccc3S(C)(=O)=O)c2)C(=O)O1 (centres unmarked) [EXAMPLE 15] , target or system 11β-HSD1 (Homo sapiens).
100 to 1000 nM

What value of IC50 on 11β-HSD1 (Homo sapiens) does O=C1OC(CCO)(c2ccc(F)cc2)CCN1c1cccc(-c2ccc(F)cc2F)n1 (centres unmarked) [EXAMPLE 108] have?
< 100 nM

Please provide the recorded IC50 for C=CCC1(c2ccc(F)cc2)CCN(Cc2cc(Cl)ccc2Cl)C(=O)O1 (centres unmarked) [EXAMPLE 344] , tested on 11β-HSD1 (Homo sapiens).
< 100 nM

IC50 of COc1ccc([C@H](C)N2CCC(CCCO)(c3ccc(F)cc3)OC2=O)cc1 (single isomer, unassigned) [EXAMPLE 201 Isomer 1] on 11β-HSD1 (Homo sapiens)?
< 100 nM

Record C[C@@H](c1ccc(Br)cc1)N1CC[C@](CC(C)(C)CNS(C)(=O)=O)(c2ccc(F)cc2)OC1=O [EXAMPLE 608] : what is its IC50 with 11β-HSD1 (Homo sapiens)?
< 100 nM

Missing value: IC50, 11β-HSD1 (Homo sapiens), entry CC(N)c1ccc(-c2ccc([C@H](C)N3CC[C@](CCCO)(c4ccccc4)OC3=O)cc2)s1 (some centres unmarked) [EXAMPLE 251] . Fill in?
< 100 nM
